# testDetails: Cyclic voltammetry, reduction of nitro group
# Assay type: physicochemical
# testConditions: anodic peak potential of couple IIIc/IIIa, given with inverted sign; vs. Ag/AgCl electrode in DMSO
# Method: Cyclic Voltammetry (CV) was carried out using a Metrohm Autolab instrument model PGSTAT204, using dimethyl sulfoxide (DMSO) as the solvent (1 mM solutions), tetrabutylammonium perchlorate (0.1 M TBAP) as the supporting electrolyte, a hanging drop mercury electrode (HDME) as the working electrode, Ag/AgCl (3M KCl) as the reference electrode, and a graphite rod as the counter electrode. All measurements were performed after bubbling with nitrogen (N2) for 10 min. […]
measurementLabel: −EpaIII (V)
Lab book: enter the figure in V, no units written.

Example results:
• Cn1c2ccc([N+](=O)[O-])cc2c(=O)n1Cc1ccc(Br)cc1 = 0.99
• COc1nn(C)c2ccc([N+](=O)[O-])cc12 = 1.25
• Cn1c2ccc([N+](=O)[O-])cc2c(=O)n1Cc1cccc(Cl)c1 = 0.96
• O=[N+]([O-])c1ccc2c(c1)c(O)nn2CCCCCCCl = 1.27

In plain terms, `Cn1c2ccc([N+](=O)[O-])cc2c(=O)n1Cc1ccccc1` has a documented −EpaIII of 1.02

In plain terms, `O=c1[nH]n(-c2ccccc2)c2ccc([N+](=O)[O-])cc12` has a documented −EpaIII of 1.26

In plain terms, `COc1ccc(Cn2c(=O)c3cc([N+](=O)[O-])ccc3n2C)cc1` has a documented −EpaIII of 1.03

In plain terms, `O=c1c2cc([N+](=O)[O-])ccc2[nH]n1-c1ccccc1` has a documented −EpaIII of 1.27

In plain terms, `Cn1c2ccc([N+](=O)[O-])cc2c(=O)n1Cc1ccccc1Br` has a documented −EpaIII of 0.96

In plain terms, `Cn1c2ccc([N+](=O)[O-])cc2c(=O)n1Cc1ccc(F)cc1` has a documented −EpaIII of 0.99

====

# testDetails: Cyclic voltammetry, reduction of nitro group
# Type: physicochemical
# testConditions: anodic peak potential of couple IIIc/IIIa, given with inverted sign; vs. Ag/AgCl electrode in DMSO
# Protocol: Cyclic Voltammetry (CV) was carried out using a Metrohm Autolab instrument model PGSTAT204, using dimethyl sulfoxide (DMSO) as the solvent (1 mM solutions), tetrabutylammonium perchlorate (0.1 M TBAP) as the supporting electrolyte, a hanging drop mercury electrode (HDME) as the working electrode, Ag/AgCl (3M KCl) as the reference electrode, and a graphite rod as the counter electrode. All measurements were performed after bubbling with nitrogen (N2) for 10 min. […]
measurementLabel: −EpaIII (V)
Lab book: enter the figure in V, no units written.

In plain terms, Cn1c2ccc([N+](=O)[O-])cc2c(=O)n1Cc1ccc(Cl)cc1 [Compound 11] has a documented −EpaIII of 0.99

====

# testDetails: Cyclic voltammetry, reduction of nitro group
# Assay type: physicochemical
# testConditions: cathodic peak potential of couple IIIc/IIIa, given with inverted sign; vs. Ag/AgCl electrode in DMSO
measurementLabel: −EpcIII (V)
Lab book: enter the figure in V, no units written.

* Cn1c2ccc([N+](=O)[O-])cc2c(=O)n1Cc1ccccc1C(F)(F)F [Compound 17] | 1.37

In plain terms, Cn1c2ccc([N+](=O)[O-])cc2c(=O)n1Cc1ccc(F)cc1 [Compound 8] has a documented −EpcIII of 1.14

In plain terms, Cn1c2ccc([N+](=O)[O-])cc2c(=O)n1Cc1ccc(Br)cc1 [Compound 14] has a documented −EpcIII of 1.20

In plain terms, COc1ccccc1Cn1c(=O)c2cc([N+](=O)[O-])ccc2n1C [Compound 15] has a documented −EpcIII of 1.16

In plain terms, Cn1[nH]c2ccc([N+](=O)[O-])cc2c1=O [Compound 3a] has a documented −EpcIII of 1.13

====

The following molecules are shown together with reported −E1/2 values.
# testDetails: Cyclic voltammetry, reduction of nitro group
# Type: physicochemical
# testConditions: half-wave potential of couple IIIc/IIIa, given with inverted sign; vs. Ag/AgCl electrode in DMSO
Returns: string containing the number followed by the unit.

* Cn1c2ccc([N+](=O)[O-])cc2c(=O)n1Cc1ccc(Cl)cc1 [Compound 11] | 1.10 V
* O=[N+]([O-])c1ccc2c(c1)c(O)nn2CCCCCO [Compound 20] | 1.33 V
* COc1ccc(Cn2c(=O)c3cc([N+](=O)[O-])ccc3n2C)cc1 [Compound 16] | 1.09 V
* O=c1[nH]n(-c2ccccc2)c2ccc([N+](=O)[O-])cc12 [Compound 22] | 1.33 V
* Cn1c2ccc([N+](=O)[O-])cc2c(=O)n1Cc1ccc(F)cc1 [Compound 8] | 1.07 V
* Cn1c2ccc([N+](=O)[O-])cc2c(=O)n1Cc1ccccc1Br [Compound 12] | 1.07 V
* Cn1c2ccc([N+](=O)[O-])cc2c(=O)n1Cc1ccccc1F [Compound 6] | 1.08 V
* Cn1nc(O)c2cc([N+](=O)[O-])ccc21 [Compound 19, 1-methyl-5-nitroindazol-3-ol] | 1.32 V

Next up:
In plain terms, Cn1c2ccc([N+](=O)[O-])cc2c(=O)n1Cc1cccc(Cl)c1 [Compound 10] has a documented −E1/2 of 1.07 V

====

The following compounds are shown together with reported −EpaIII values.
# testDetails: Cyclic voltammetry, reduction of nitro group
# Type: physicochemical
# testConditions: anodic peak potential of couple IIIc/IIIa, given with inverted sign; vs. Ag/AgCl electrode in DMSO
Lab book: enter the figure in V, no units written.

* Cn1c2ccc([N+](=O)[O-])cc2c(=O)n1Cc1ccccc1F [Compound 6] | 0.94
* O=C(Cn1ccnc1[N+](=O)[O-])NCc1ccccc1 [BNZ, benznidazole, reference compound] | 0.93
* CC1CS(=O)(=O)CCN1/N=C/c1ccc([N+](=O)[O-])o1 (stereo not shown) [NFX, nifurtimox, reference compound] | 0.85

In plain terms, Cn1c2ccc([N+](=O)[O-])cc2c(=O)n1Cc1cccc(F)c1 [Compound 7] has a documented −EpaIII of 0.98

====

# testDetails: Cyclic voltammetry, reduction of nitro group
# Type: physicochemical
# testConditions: anodic peak potential of couple IIIc/IIIa, given with inverted sign; vs. Ag/AgCl electrode in DMSO
measurementLabel: −EpaIII
Returns: string containing the number followed by the unit.

Example results:
- Cn1c2ccc([N+](=O)[O-])cc2c(=O)n1Cc1cccc(Br)c1: 0.99 V
- CC(c1ccccc1)n1c(=O)c2cc([N+](=O)[O-])ccc2n1C (stereo not drawn): 1.02 V

In plain terms, `Cn1c2ccc([N+](=O)[O-])cc2c(=O)n1Cc1ccccc1Cl` has a documented −EpaIII of 1.02 V

Where do the numbers come from? From paper PMC11508334.
